targetEntity: T1, Murine CTGF (Mus musculus, UniProt P29268)
T1 construct: purchased Abbexa
T1 sequence (P29268 26-348): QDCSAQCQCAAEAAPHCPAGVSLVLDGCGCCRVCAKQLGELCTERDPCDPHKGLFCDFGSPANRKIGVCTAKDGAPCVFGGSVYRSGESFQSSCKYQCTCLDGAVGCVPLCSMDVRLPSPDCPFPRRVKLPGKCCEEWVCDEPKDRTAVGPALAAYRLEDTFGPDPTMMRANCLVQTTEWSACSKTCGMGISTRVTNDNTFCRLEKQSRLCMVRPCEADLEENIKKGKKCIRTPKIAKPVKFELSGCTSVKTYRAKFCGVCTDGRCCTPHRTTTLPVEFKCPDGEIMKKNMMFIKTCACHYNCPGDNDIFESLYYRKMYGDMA
experimentSummary: SPR binding kinetics and affinity, murine CTGF
Set-up: key: B binding without determination of kinetics constants
conditionDetails: 25° C., 1:1 binding model

>  <molecule>
SEQ ID NO: 20: optimized CTGF-binding hNGAL lipocalin mutein (protein, lipocalin mutein) QDSTSDLIPAPPLSKVPLQQNFQDNQFQGKWYVVGLAGNAILREDKQPAKMFATIYELKEDKSYDVTSVRFEAKSCSYTIKTFVPGSQPGEFTAGNIKSAPGQTSTLVRVVSTNYNQHAMVFAKAVQLNREHFFITLYGRTKELTSELKENFIRFSKSLGLPENHIVFPVPIDQCIDG

>  <Murine CTGF KD>
B

$$$$
>  <molecule>
SEQ ID NO: 7: parent CTGF-binding hNGAL lipocalin mutein (protein, lipocalin mutein) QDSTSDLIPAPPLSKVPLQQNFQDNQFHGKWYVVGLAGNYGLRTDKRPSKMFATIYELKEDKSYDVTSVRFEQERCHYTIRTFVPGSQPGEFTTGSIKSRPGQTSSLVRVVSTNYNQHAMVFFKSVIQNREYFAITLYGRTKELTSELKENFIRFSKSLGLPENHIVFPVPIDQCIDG

>  <Murine CTGF KD>
B

$$$$
>  <molecule>
SEQ ID NO: 23: optimized CTGF-binding hNGAL lipocalin mutein (protein, lipocalin mutein) QDSTSDLIPAPPLSKVPLQQNFQDNQFQGKWYVVGVAGNAILRPDKQPAKMFATIYELKEDKSYDVTSVRFEAKSCKYTIKTFVPGSQPGEFTSGQIKSAPGQTSTLVRVVSTNYNQHAMVFFKHVSQNREIFVITLYGRTKELTSELKENFIRFSKSLGLPENHIVFPVPIDQCIDG

>  <Murine CTGF KD>
B

$$$$
>  <molecule>
SEQ ID NO: 3: parent CTGF-binding hNGAL lipocalin mutein (protein, lipocalin mutein) QDSTSDLIPAPPLSKVPLQQNFQDNQFHGKWYVVGRAGNNRLREDKDPPKMWATIYELKEDKSYNVTHVHFMTKKCRYIIDTFVPGSQPGEFTLGAIKSGPGMTSPLVRIVSTNYNQHAMVFFKWVNQNREWFTITLYGRTKELTSELKENFIRFSKSLGLPENHIVFPVPIDQCIDG

>  <Murine CTGF KD>
B

$$$$
>  <molecule>
SEQ ID NO: 5: optimized CTGF-binding hNGAL lipocalin mutein (protein, lipocalin mutein) QDSTSDLIPAPPLSKVPLQQNFQDNQFQGKWYVVGKAGNALREDKEPPKMWATIYELKEDKSYDVTHVHFLTKKCKYLIDTFVPGSQPGEFTIGAIKSGPGLTSPLVRVVSTNYNQHAMVFFKWVSQNREWFTITLYGRTKELTSELKENFIRFSKSLGLPENHIVFPVPIDQCIDG

>  <Murine CTGF KD>
B

$$$$
>  <molecule>
SEQ ID NO: 18: optimized CTGF-binding hNGAL lipocalin mutein (protein, lipocalin mutein) QDSTSDLIPAPPLSKVPLQQNFQDNQFQGKWYVVGIAGNAILRDDKYPAKMFATIYELKEDKSYDVTSVRFENKSCIYTIKTFVPGSQPGEFTHGNIKSHPGQTSTLVRVVSTNYNQHAMVFFKHVSQNREIFVITLYGRTKELTSELKENFIRFSKSLGLPENHIVFPVPIDQCIDG

>  <Murine CTGF KD>
B

$$$$
>  <molecule>
SEQ ID NO: 6: optimized CTGF-binding hNGAL lipocalin mutein (protein, lipocalin mutein) QDSTSDLIPAPPLSKVPLQQNFQDNQFQGKWYVVGRAGNNQLREDKSPPKMWATIYELKEDKSYDVTHVHFSTKKCRYIIDTFVPGSQPGEFTAGAIKSGPGLTSPLVRVVSTNYNQHAMVFFKWVTQNREWFTITLYGRTKELTSELKENFIRFSKSLGLPENHIVFPVPIDQCIDG

>  <Murine CTGF KD>
B

$$$$
>  <molecule>
SEQ ID NO: 10: optimized CTGF-binding hNGAL lipocalin mutein (protein, lipocalin mutein) QDSTSDLIPAPPLSKVPLQQNFQDNQFQGKWYVVGLAGNAILREDKQPAKMFATIYELKEDKSYDVTSVRFEAKSCSYTIKTFVPGSQPGEFTAGNIKSAPGQTSTLVRVVSTNYNQHAMVFWKSVAGTRESFNIALYGRTKELTSELKENFIRFSKSLGLPENHIVFPVPIDQCIDG

>  <Murine CTGF KD>
B

$$$$

# credit: patent US20240228562A1
